Target: Focal adhesion kinase 1 (Homo sapiens) (UniProt Q05397)
Sequence (Q05397 whole entry, looked up): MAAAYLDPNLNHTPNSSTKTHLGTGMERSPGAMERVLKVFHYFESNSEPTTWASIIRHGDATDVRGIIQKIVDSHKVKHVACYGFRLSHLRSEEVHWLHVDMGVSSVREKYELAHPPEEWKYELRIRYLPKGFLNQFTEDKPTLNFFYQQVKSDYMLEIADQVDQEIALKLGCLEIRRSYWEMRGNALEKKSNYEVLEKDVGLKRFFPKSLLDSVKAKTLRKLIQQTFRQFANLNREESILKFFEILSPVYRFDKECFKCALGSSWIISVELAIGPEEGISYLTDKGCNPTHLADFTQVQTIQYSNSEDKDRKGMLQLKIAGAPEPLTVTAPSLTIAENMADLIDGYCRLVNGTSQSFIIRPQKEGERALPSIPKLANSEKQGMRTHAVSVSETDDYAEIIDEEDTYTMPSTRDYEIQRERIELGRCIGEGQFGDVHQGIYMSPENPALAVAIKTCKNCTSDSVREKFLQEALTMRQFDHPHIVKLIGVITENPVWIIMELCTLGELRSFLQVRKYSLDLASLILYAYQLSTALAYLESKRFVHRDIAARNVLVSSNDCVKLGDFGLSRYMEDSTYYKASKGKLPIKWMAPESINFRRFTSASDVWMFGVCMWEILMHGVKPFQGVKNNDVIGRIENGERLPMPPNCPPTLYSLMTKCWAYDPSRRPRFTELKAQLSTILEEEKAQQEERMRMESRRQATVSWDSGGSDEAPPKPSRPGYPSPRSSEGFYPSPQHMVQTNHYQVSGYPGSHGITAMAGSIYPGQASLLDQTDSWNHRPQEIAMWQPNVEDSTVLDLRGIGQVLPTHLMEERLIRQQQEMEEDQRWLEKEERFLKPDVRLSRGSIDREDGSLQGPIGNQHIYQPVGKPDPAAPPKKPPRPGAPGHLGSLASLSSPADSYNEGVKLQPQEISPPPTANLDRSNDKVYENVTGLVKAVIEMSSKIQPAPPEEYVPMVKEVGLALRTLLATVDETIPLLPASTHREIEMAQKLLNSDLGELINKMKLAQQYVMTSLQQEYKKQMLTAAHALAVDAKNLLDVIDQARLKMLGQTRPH
Experiment: small-molecule microarray binders of FAK, primary screen, biochemical, 635/667 nm fluorescence, BSA, DTT (AID 1130);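 also: composite of spot emission at 667 nm and signal to noise over triplicate slides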
Conditions: PTK2 binding, 635 nm fluorescence, higher = more signal
measured-endpoint: composite z-score
Numbers only.

Consider the worked cases shown below.
compound-smiles	composite z-score
COc1ccc([Si](C)(C)[C@@H]2[C@@H](CCO)O[C@]3(C(=O)N(Cc4ccc(N5C(=O)COc6ccccc65)cc4)c4ccccc43)[C@H]2C)cc1	0.571
COCCOC(=O)N1C(=O)[C@@]2(c3cc(C#CC4=CCCCC4)ccc31)[C@H](C(=O)Nc1nc3ccccc3s1)[C@H]1C(=O)O[C@H](c3ccccc3)[C@H](c3ccccc3)N1[C@@H]2c1ccc(OCCO)cc1	0.147

composite z-score reading for C=C(COC)/C(=C/C[C@H](OC(=O)c1ccncc1)c1ccc(OCCO)cc1)c1cnc2ccccc2c1 : 0.111

----------
Kindly supply the reported composite Z-score values for the records listed here.
Assay: small-molecule microarray binders of probe aXIP, primary screen, biochemical, NeuroSMM set, 635/667 nm fluorescence (AID 1119);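 also: probe is the protein aXip251-270 applied at 1 µg/mL to compound-printed slides; binding of probe to printed compounds measured as 667 nm fluorescence plus signal to noise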
Conditions: higher = more signal, called active from +8 up or from −8 down
Give bare numbers.

Consider the worked cases shown below.
molecule	measured-endpoint	reported-result
COC(=O)[C@@]1(Cc2ccc(F)cc2)[C@H]2c3cc(C(=O)N(C)C)n(CC4CC4)c3C[C@H]2CN1C(=O)c1ccccc1	composite Z-score	-0.0191
CC(C)C(CO)N1C(=O)[C@@H]2[C@H]3C(=O)OCC=C[C@H]3OC23C=CCN(C(C)C)C(=O)[C@@H]13 (some centres not stated)	composite Z-score	0.12
COCCOC(=O)N1C(=O)[C@@]2(c3cc(C#CCCO)ccc31)[C@H](C(=O)Nc1nc3ccccc3s1)[C@H]1C(=O)O[C@H](c3ccccc3)[C@H](c3ccccc3)N1[C@@H]2c1ccc(OCCO)cc1	composite Z-score	-1.03
CC(C)C(=C=CC[C@@H](O)c1ccccc1OCCO)CCO	composite Z-score	-0.519
CC1CC/C=C\[C@H]2OC34C=CCN(Cn5nnc6ccccc65)C(=O)[C@H]3N(C(CO)C(C)C)C(=O)[C@@H]4C2C(=O)O1 (some centres not stated)	composite Z-score	-0.0775

Consider the following items and state reported composite Z-score for each.
1. CCCCN1CC=CC23O[C@@H]4C=CCOC(=O)[C@@H]4[C@H]2C(=O)N(CCCCCO)[C@@H]3C1=O (some centres not stated)
2. C=CCN1C(=O)[C@@]2(O[C@@H](CCO)[C@H]([Si](C)(C)c3ccc(OC)cc3)[C@H]2C)c2cc(NC(=O)c3ccc(OC)cc3)ccc21

A.
1: 0.102; 2: -0.265

----------
Assay: small-molecule microarray binders of probe aShh, primary screen, biochemical, biotinylated probe, 635/667 nm fluorescence (AID 1114);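 also: probe is biotin-labelled aShh protein from a stem cell growth factor screen; measures binding of labelled protein to compounds printed on the slide; score merges feature fluorescence at 667 nm with signal-to-noise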
Details: higher = more signal
Mark label 1 for reported composite z-score of 0.1 or greater; mark label 0 for anything smaller.

Solved cases below.
compound	answer-label
CCOC(=O)C[C@H]1[C@H](OC(=O)Cc2ccc3c(c2)OCO3)[C@@H](NC(=O)c2ccc(-c3ccccc3)cc2)c2cc(OCCCO)ccc2N1C(=O)Cc1ccc(OC)cc1	label 1
Cc1ccc(S[C@]2(C(=O)NCC(C)C)CC(=O)N(Cc3cc(C(F)(F)F)cc(C(F)(F)F)c3)[C@@H]2c2ccc(CO)cc2I)cc1	label 1
COc1ccc(COC2OC[C@]3(C)[C@H]4C5=C(CN3C(=O)OC(C)(C)C)[C@H](C)C(CO)C(CO)C5CC[C@@H]24)cc1 (some centres undefined)	label 1

Q. Could you please find out whether C[C@@H]1ON(c2cccc(C(=O)OC(C)(C)C)c2)[C@H](c2ccc(Br)cc2)[C@H]1C(=O)N1C(=O)OC[C@H]1Cc1ccccc1 has composite z-score that meets 0.1 or exceeds it?
A. label 0

Q. Could you please find out whether O=C1O[C@H](c2ccccc2)[C@H](c2ccccc2)N2[C@H]1[C@@H](C(=O)Nc1nc3ccccc3s1)[C@]1(C(=O)Nc3ccc(C#CC4(O)CCCCCC4)cc31)[C@H]2c1ccc(OCCO)cc1 has composite z-score that meets 0.1 or exceeds it?
A. label 0

Q. Could you please find out whether C=C(/C(=C/C[C@@H](OC(C)=O)c1ccc(OCCO)cc1)c1cnc2ccccc2c1)C(C)C has composite z-score that meets 0.1 or exceeds it?
A. label 1

Q. Could you please find out whether O=C1NCC(=O)N2[C@@H]1C[C@@H](C(=O)O)[C@H]2c1cccc(OCCO)c1 has composite z-score that meets 0.1 or exceeds it?
A. label 1

Q. Could you please find out whether COCCCNC(=O)[C@@]1(Cc2ccccc2N=[N+]=[N-])N=C(c2ccc(OCCCO)cc2)O[C@H]1c1ccccc1N=[N+]=[N-] has composite z-score that meets 0.1 or exceeds it?
A. label 0

Q. Could you please find out whether COC(=O)C=C(CC(O)c1cccc(Cl)c1)OC (centres undefined) has composite z-score that meets 0.1 or exceeds it?
A. label 1

Q. Could you please find out whether [N-]=[N+]=NCc1ccccc1C[C@]1(C(=O)NCC(O)CO)N=C(c2ccc(OCCCO)cc2)O[C@H]1c1ccccc1 (some centres undefined) has composite z-score that meets 0.1 or exceeds it?
A. label 0

----------
Assay: modulators of HCV replicon luciferase signal, primary screen, HCV replication inhibitor project, Huh7 cells, luciferase reporter (AID 1109);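 also: huh7 hepatoma cells harbouring a luciferase neomycin HCV replicon reporter; luciferase luminescence as measure of HCV replicon replication; test concentration not given here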
Settings: 48 h, higher = more signal
Mark class 1 for reported z-score of -2 or greater; mark class 0 for anything smaller.

Solved cases below.
                                   compound  answer_label
0  CC(C)(C)OC(=O)CC[C@]1(C(=O)NCC(O)CO)COC(c2ccc(OCCCO)cc2)=N1 (stereo not given in full)       class 1
1  C=CC[C@@]1(C(=O)N(C)C)N=C(c2ccc(OCCCO)cc2)O[C@@H]1c1ccccc1N=[N+]=[N-]       class 1
2  COc1cc(CO)cc(I)c1O[C@H]1C=C(C(=O)NCCO)C[C@@H](N(CCN2CCOCC2)C(=O)C2CCOC2)[C@@H]1O (stereo not given in full)       class 1
3  C=CCNC(=O)[C@H]1[C@@H]2C(=O)O[C@@H](c3ccccc3)[C@@H](c3ccccc3)N2[C@@H](c2ccc(OCCO)cc2)[C@]12C(=O)Nc1ccc(C#CC3=CCCCC3)cc12       class 0
4  C=CCNC(=O)[C@H]1[C@@H]2C(=O)O[C@@H](c3ccccc3)[C@@H](c3ccccc3)N2[C@@H](c2ccccc2OCCO)[C@]12C(=O)Nc1ccc(C#CC3=CCCCC3)cc12       class 0

Turning to the following compound.
Q. Could you please find out whether O=C1O[C@H](c2ccccc2)[C@H](c2ccccc2)N2[C@H]1[C@@H](C(=O)O)[C@]1(C(=O)Nc3ccc(C#CC4=CCCCC4)cc31)[C@H]2c1ccccc1OCCO has z-score that meets -2 or exceeds it?
A. class 0

----------
Experiment: small-molecule microarray binders of probe aXIP, primary screen, biochemical, NeuroSMM set, 635/667 nm fluorescence (AID 1119);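 also: probe is the protein aXip251-270 applied at 1 µg/mL to compound-printed slides; binding of probe to printed compounds measured as 667 nm fluorescence plus signal to noise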
Settings: higher = more signal, called active from +8 up or from −8 down
Kindly supply the reported composite Z-score values for the records listed here.
Numbers only.

Consider the worked cases shown below.
molecule	measured-endpoint	reported-result
C=CCNC(=O)[C@H]1[C@@H]2C(=O)O[C@@H](c3ccccc3)[C@@H](c3ccccc3)N2[C@@H](c2ccc(O)cc2)[C@]12C(=O)N(C(=O)OCCOC)c1ccc(C#CCNC(N)=O)cc12	composite Z-score	0.384
CC[C@@H]1C=C(C(=O)O)[C@H](c2ccco2)N1S(=O)(=O)c1ccc(C)cc1	composite Z-score	0.33
CCOc1cc(C(O)C2C=CC3C(=O)N(c4ccccc4)C(=O)C3N2Nc2ccccc2)ccc1O (stereo unspecified)	composite Z-score	-0.224
COCCOC(=O)N1C(=O)[C@@]2(c3cc(C#Cc4ccc(OC)cc4)ccc31)[C@H](C(N)=O)[C@H]1C(=O)O[C@H](c3ccccc3)[C@H](c3ccccc3)N1[C@@H]2c1ccccc1OCCO	composite Z-score	0.611
COCCOC(=O)N1C(=O)[C@@]2(c3cc(C#CC4(O)CCCCCC4)ccc31)[C@H](c1ccc(O)cc1)N1[C@H](c3ccccc3)[C@H](c3ccccc3)OC(=O)[C@H]1[C@@H]2C(=O)Nc1nc2ccccc2s1	composite Z-score	0.0656

// next item, composite Z-score requested
composite Z-score reading for O=C1OCCC/C=C\[C@H]2OC34C=CCN(CCN5CCOCC5)C(=O)[C@H]3N(CCCO)C(=O)[C@@H]4C12 (stereo partly specified) : 0.546

----------
Kindly supply the reported composite z-score values for the records listed here.
Biological target: Torsin-1A (Homo sapiens)
Experiment: torsin A binders from cell lysate, primary screen, small-molecule microarray, wild-type, 635/667 nm (AID 1149)
Details: COS7 hTOR1A-WT lysate, 635 nm fluorescence, higher = more signal
One number for each entry.

Consider the worked cases shown below.
molecule	subject-of-test	composite z-score
C=CCOC(=O)[C@H]1[C@@H]2C(=O)O[C@@H](c3ccccc3)[C@@H](c3ccccc3)N2[C@@H](c2ccc(OCCOC(=O)[C@H]3C[C@H]4C(=O)N5CCC[C@H]5C(=O)N4[C@H]3c3ccc(O)cc3)cc2)[C@]12C(=O)Nc1ccc(I)cc12	Torsin-1A (Homo sapiens)	2.59
COc1ccc(C#Cc2ccc3c(c2)[C@]2(C(=O)N3)[C@H](c3ccccc3OCCO)N3[C@H](c4ccccc4)[C@H](c4ccccc4)OC(=O)[C@H]3[C@@H]2C(=O)O)cc1	Torsin-1A (Homo sapiens)	0.498
C=CCOC(=O)[C@H]1[C@@H]2C(=O)O[C@@H](c3ccccc3)[C@@H](c3ccccc3)N2[C@@H](c2ccc(OCCOC(=O)[C@@H]3C[C@@H]4C(=O)N[C@@H](CCCCN(C)C)C(=O)N4[C@@H]3c3ccc(O)cc3)cc2)[C@]12C(=O)Nc1ccc(I)cc12	Torsin-1A (Homo sapiens)	1.22

Consider the following items and state reported composite z-score for each.
1. C=CCNC(=O)[C@@H]1[C@H]2C(=O)O[C@H](c3ccccc3)[C@H](c3ccccc3)N2[C@H](c2ccccc2OCCO)[C@@]12C(=O)N(C(=O)OCCOC)c1ccc(C#CCNC(N)=O)cc12
2. CN1C(=O)C2C=CC(C(O)c3cccs3)N(Nc3ccccc3)C2C1=O (stereo not given)
3. COCCOC(=O)N1C(=O)[C@@]2(c3cc(C#CCCO)ccc31)[C@H](C(=O)N1CCc3cc(OC)c(OC)cc3C1)[C@H]1C(=O)O[C@H](c3ccccc3)[C@H](c3ccccc3)N1[C@@H]2c1ccc(O)cc1
4. CCOC(=O)C[C@H]1[C@H](OC(=O)c2ccc(C(=O)c3ccccc3)cc2)[C@@H](NC(=O)c2ccc(-c3ccccc3)cc2)c2cc(OCCCO)ccc2N1C(=O)c1ccccc1
5. COC(=O)c1c(CC[C@@H](CO)NC(=O)N[C@H](Cn2cc(Cc3ccccc3)nn2)C(C)C)oc(C(C)=O)c1C(=O)OC
6. Cc1ccc(C(C)CC(O)C2C=CC3C(=O)N(C)C(=O)C3N2NC(=O)OC(C)(C)C)o1 (stereo not given)
7. COCCOC(=O)N1C(=O)[C@@]2(c3cc(C#CCCO)ccc31)[C@H](C(=O)N1CCN(c3ncccn3)CC1)[C@H]1C(=O)O[C@H](c3ccccc3)[C@H](c3ccccc3)N1[C@@H]2c1ccccc1OCCO

A.
0.186
0.757
0.73
0.117
-0.372
0.204
0.259

Consider the following items and state reported composite z-score for each.
1. C=C(CCCC)C(=O)CC[C@H](OC(=O)c1cccnc1)c1ccccc1OCCO
2. CCCC[C@H]1OB(O)C[C@H]2C1=C(COc1ccccc1)C[C@H]1C(=O)N(C)C(=O)[C@H]12

A.
1.07
-0.212

Consider the following items and state reported composite z-score for each.
1. C=C(/C(=C/C[C@@H](OC(C)=O)c1ccc(OCCO)cc1)c1cnc2ccccc2c1)C(C)C
2. CCOC(=O)C=Cc1cc([N+](=O)[O-])ccc1O
3. O=C(NCc1ccccc1)[C@@H]1c2ccccc2C(=O)N(CC23CC4CC(CC(C4)C2)C3)[C@H]1c1ccc(CO)cc1
4. C#CCNC(=O)[C@H](Cc1ccccc1)NC(=O)CCC(=O)O
5. C=CCOC(=O)[C@@H]1[C@H]2C(=O)O[C@H](c3ccccc3)[C@H](c3ccccc3)N2[C@H](c2ccc(OCCOC(=O)[C@@H]3C[C@@H]4C(=O)N[C@@H](CCCC[N+](C)(C)C)C(=O)N4[C@@H]3c3cccc(OCCO)c3)cc2)[C@@]12C(=O)Nc1ccc(I)cc12
6. [N-]=[N+]=Nc1ccccc1C[C@@]1(C(=O)NCCN2CCOCC2)N=C(c2ccc(OCCCO)cc2)O[C@@H]1c1ccccc1
7. CN(C)C(=O)[C@@]1(Cc2ccccc2CN=[N+]=[N-])N=C(c2ccc(OCCCO)cc2)O[C@H]1c1ccccc1
8. C=C(COC)/C(=C/C[C@@H](OC(C)=O)c1ccc(CO)o1)c1cnc2ccccc2c1

A.
-0.969
0.437
0.239
0.119
0.993
0.304
0.209
0.797

Consider the following items and state reported composite z-score for each.
1. COc1ccc(COC2OC[C@]3(C)[C@H]4C5=C(CN3C(=O)OC(C)(C)C)[C@H](C)C(CO)C(CO)C5CC[C@@H]24)cc1 (stereo not given in full)
2. C[C@]1(C(=O)NC2CC2)c2ccccc2C(=O)N(Cc2cc(C(F)(F)F)cc(C(F)(F)F)c2)[C@H]1c1ccc(CO)cc1
3. CCOC(=O)C[C@H]1[C@H](OC(=O)c2cc3ccccc3oc2=O)[C@@H](NC(=O)Cc2ccc(OC)cc2)c2cc(OCCCO)ccc2N1C(=O)c1ccccc1
4. CC(C)(C)OC(=O)CC[C@@]1(C(N)=O)N=C(c2ccc(OCCCO)cc2)O[C@@H]1c1ccccc1
5. C=CCOC(=O)[C@H]1[C@@H]2C(=O)O[C@@H](c3ccccc3)[C@@H](c3ccccc3)N2[C@@H](c2ccc(OCCOC(=O)[C@@H]3C[C@@H]4C(=O)N[C@@H](CCCC[N+](C)(C)C)C(=O)N4[C@@H]3c3ccc(O)cc3)cc2)[C@]12C(=O)Nc1ccccc12

A.
[1.32, 0.372, 0.388, 0.361, 1.67]
